Recorded values, source ChEMBL document CHEMBL4177558.

- System: MC3T3-E1
- protocol-summary: Induction of osteoblast proliferation in mouse MC3T3-E1 cells assessed a growth rate relative to untreated control at 10^-8 mol/L after 48 hrs by MTT assay
- Type: functional
measured-quantity: Activity
Please state the number and follow it with the unit.

Worked examples, 7 molecules total:
molecule	reported-result
CC(C)=CCc1c(-c2ccc(O)cc2O)oc2c3c(cc(O)c2c1=O)OC(C)(C)C=C3	7.13%
CC(O)CCc1c(-c2ccccc2Cl)oc2cc3c(c(O)c2c1=O)C=CC(C)(C)O3 (stereo not drawn)	11.08%
CC1(C)C=Cc2c(cc3oc(-c4ccccc4Br)c(CCC(C)(O)c4ccc(F)cc4)c(=O)c3c2O)O1 (stereo not drawn)	1.91%
CC(C)(O)CCc1c(-c2ccccc2Cl)oc2cc3c(c(O)c2c1=O)C=CC(C)(C)O3	6.39%
CC(O)CCc1c(-c2ccccc2Cl)oc2c3c(cc(O)c2c1=O)OC(C)(C)C=C3 (stereo not drawn)	0.53%
CC1(C)C=Cc2c(cc(O)c3c(=O)c(CCC(C)(O)c4ccc(F)cc4)c(-c4ccccc4Cl)oc23)O1 (stereo not drawn)	6.02%
CC1(C)C=Cc2c(cc3oc(-c4ccccc4Br)c(CCC(C)(O)c4ccccc4)c(=O)c3c2O)O1 (stereo not drawn)	10.13%

Field: next molecule
Q. // query Activity value for entry CC1(C)C=Cc2c(cc(O)c3c(=O)c(CCC(C)(O)c4ccc(F)cc4)c(-c4ccccc4Br)oc23)O1 (stereo not drawn)
A. 4.55%
